target: CYP3A4 (Homo sapiens, UniProt P08684)
Sequence (P08684 whole entry): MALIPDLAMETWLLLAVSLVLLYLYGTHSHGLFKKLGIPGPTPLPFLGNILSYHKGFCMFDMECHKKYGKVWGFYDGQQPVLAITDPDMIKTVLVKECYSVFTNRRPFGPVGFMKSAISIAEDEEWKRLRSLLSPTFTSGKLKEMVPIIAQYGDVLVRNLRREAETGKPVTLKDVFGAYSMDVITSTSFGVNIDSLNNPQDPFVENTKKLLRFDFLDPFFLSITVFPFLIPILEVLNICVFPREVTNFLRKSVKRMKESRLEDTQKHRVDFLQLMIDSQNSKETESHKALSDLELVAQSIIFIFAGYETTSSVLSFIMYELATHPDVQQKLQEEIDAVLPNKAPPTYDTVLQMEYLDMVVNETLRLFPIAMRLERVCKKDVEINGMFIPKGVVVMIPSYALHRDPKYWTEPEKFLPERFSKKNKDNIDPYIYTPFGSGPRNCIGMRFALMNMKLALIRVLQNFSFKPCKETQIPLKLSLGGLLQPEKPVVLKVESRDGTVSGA
pIC50: −log10 of the molar value.
MEASURED QUANTITY: pIC50

Q) Answer with the recorded pIC50 for the molecule listed here: `CN1[C@@H]2CC[C@H]1C[C@@H](OC(=O)c1c[nH]c3cc(F)ccc13)C2`
A) < 4.52

###

biological target: CYP1A2 (Homo sapiens, UniProt P05177); experiment: CYP inhibition screen CYP1A2; format: in vitro ADME; conditions: human
MEASURED QUANTITY: inhibition at 10 µM
Show the value, then the unit it is measured in.

Q) Return reported inhibition at 10 µM. Input compound: `CN1[C@@H]2CC[C@H]1C[C@@H](OC(=O)c1c[nH]c3cc(F)ccc13)C2`
A) 0.35%

###

Test: in vivo
Conditions: rat, iv, 2.5 mg/kg
Protocol: Top panel: Levels after oral delivery at 10 mk at 1, 8, and 24 hours; levels after oral delivery at 40 mk at 24 hours only. Bottom panel: IV delivery at 2.5 mk. Note brain levels in ng/g, plasma levels in ng/ml. FIG. 13 illustrates C41 pharmacokinetic parameters in rat. C41 pharmacokinetics were determined in a rat (see, FIG. 12, Table 9). […] Brain tissue was collected at 1, 8, and 24 hours. […] Oral availability was determined to be about 100% (see, e.g. FIG. 13).
MEASURED QUANTITY: AUC (ng·h/mL)
Write the value in ng·h/mL as a bare number.

Q) Find the measured AUC of `CN1[C@@H]2CC[C@H]1C[C@@H](OC(=O)c1c[nH]c3cc(F)ccc13)C2` and report it.
A) 373

###

pKd: −log10 of the molar value.
MEASURED QUANTITY: pKd

Q) Please indicate recorded pKd of CN1[C@@H]2CC[C@H]1C[C@@H](OC(=O)c1c[nH]c3cc(F)ccc13)C2 [Compound C41] measured with 5-HT3 (Homo sapiens).
Sequence (P46098 24-478, species assumed): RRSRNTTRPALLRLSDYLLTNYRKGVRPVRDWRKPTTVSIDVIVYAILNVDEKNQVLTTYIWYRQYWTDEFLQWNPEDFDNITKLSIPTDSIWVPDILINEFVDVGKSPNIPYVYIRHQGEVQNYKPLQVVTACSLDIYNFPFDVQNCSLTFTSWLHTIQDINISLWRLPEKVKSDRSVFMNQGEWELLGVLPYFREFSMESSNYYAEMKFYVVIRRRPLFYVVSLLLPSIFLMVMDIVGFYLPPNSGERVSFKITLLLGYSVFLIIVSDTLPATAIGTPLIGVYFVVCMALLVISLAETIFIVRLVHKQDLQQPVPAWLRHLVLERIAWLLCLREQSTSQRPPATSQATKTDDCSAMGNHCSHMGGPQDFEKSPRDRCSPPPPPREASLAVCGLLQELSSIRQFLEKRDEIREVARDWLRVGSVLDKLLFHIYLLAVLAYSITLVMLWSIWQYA
A) ~8.52

###

assay: in vitro; conditions: human, plasma
Can you tell me fraction unbound for the items I'm about to list?
Number only, please.

Q) Determine from records and report fraction unbound for `CN1[C@@H]2CC[C@H]1C[C@@H](OC(=O)c1c[nH]c3cc(F)ccc13)C2`
A) 0.257

Q) Report measured fraction unbound; entry is CC(C)NCC(O)COc1cccc2ccccc12 (centres unmarked) [propranolol, reference compound]
A) 0.184

###

molecular target: CYP2C9 (Homo sapiens, UniProt P11712); assay: CYP inhibition screen CYP2C9; format: in vitro ADME; settings: human
Sequence (P11712 whole entry): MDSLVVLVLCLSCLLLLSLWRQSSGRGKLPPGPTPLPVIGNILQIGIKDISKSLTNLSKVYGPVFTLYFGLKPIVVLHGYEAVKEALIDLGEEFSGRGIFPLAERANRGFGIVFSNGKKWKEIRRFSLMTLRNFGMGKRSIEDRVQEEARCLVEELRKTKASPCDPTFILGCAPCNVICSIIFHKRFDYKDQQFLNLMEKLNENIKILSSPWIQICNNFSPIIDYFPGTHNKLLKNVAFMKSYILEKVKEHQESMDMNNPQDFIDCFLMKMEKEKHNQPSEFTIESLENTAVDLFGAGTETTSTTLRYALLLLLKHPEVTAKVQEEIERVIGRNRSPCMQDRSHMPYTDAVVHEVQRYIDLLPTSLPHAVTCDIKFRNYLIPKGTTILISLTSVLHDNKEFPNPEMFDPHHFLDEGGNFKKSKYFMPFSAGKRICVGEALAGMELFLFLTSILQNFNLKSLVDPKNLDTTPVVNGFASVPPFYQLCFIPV
MEASURED QUANTITY: inhibition at 30 µM (%)
Express the result in % but write the number alone.

Q) // output inhibition at 30 µM; input `CN1[C@@H]2CC[C@H]1C[C@@H](OC(=O)c1c[nH]c3cc(F)ccc13)C2` ; system CYP2C9 (Homo sapiens, UniProt P11712)
A) 21.6

###

molecular target: CYP3A4 (Homo sapiens); assay: CYP inhibition screen CYP3A4; format: in vitro ADME; conditions: human, 10 μM, midazolam; read-out: CYP3A4 midazolam inhibition
MEASURED QUANTITY: inhibition at 10 µM (%)
Numbers only; they are read as %.

Q) # return recorded inhibition at 10 µM for input CN1[C@@H]2CC[C@H]1C[C@@H](OC(=O)c1c[nH]c3ccccc13)C2 [Compound F03, tropisetron, reference compound]
A) 0

###

test: in vivo; settings: rat, po
MEASURED QUANTITY: clearance
Answer format: value, then unit.

Q) Answer with the recorded clearance of `CN1[C@@H]2CC[C@H]1C[C@@H](OC(=O)c1c[nH]c3cc(F)ccc13)C2` only.
A) 84 mL/min/kg

###

experiment: in vivo; settings: rat, iv, Mean residence time (MRT) area
MEASURED QUANTITY: MRT (h)
Please give a number only; it is taken to be in h.

Q) Determine its reported MRT: `CN1[C@@H]2CC[C@H]1C[C@@H](OC(=O)c1c[nH]c3cc(F)ccc13)C2`
A) 8.33

###

test: in vivo; conditions: rat, iv
MEASURED QUANTITY: clearance (mL/min/kg)
The response must be a number in mL/min/kg with no trailing unit.

Q) Tell me its clearance given `CN1[C@@H]2CC[C@H]1C[C@@H](OC(=O)c1c[nH]c3cc(F)ccc13)C2` as the entry.
A) 112

###

experiment: in vitro; details: human, microsomes
MEASURED QUANTITY: half-life

Q) Name the recorded half-life of the item CN1[C@@H]2CC[C@H]1C[C@@H](OC(=O)c1c[nH]c3cc(F)ccc13)C2 [Compound C41] in your answer.
A) > 4 h

###

target: CYP2C9 (Homo sapiens, UniProt P11712)
MEASURED QUANTITY: IC50

Q) Query IC50 for `CN1[C@@H]2CC[C@H]1C[C@@H](OC(=O)c1c[nH]c3cc(F)ccc13)C2`
A) > 30 µM

###

test: S9 stability, monkey; assay type: in vitro ADME
MEASURED QUANTITY: half-life

Q) Check the records and state half-life for `CN1[C@@H]2CC[C@H]1C[C@@H](OC(=O)c1c[nH]c3cc(F)ccc13)C2`
A) > 1 h

###

experiment: physchem
MEASURED QUANTITY: solubility (mM)
Output spec: scalar in mM, unitless text.

Q) Annotate the compound `CN1[C@@H]2CC[C@H]1C[C@@H](OC(=O)c1c[nH]c3cc(F)ccc13)C2` with its measured solubility.
A) 80

###

test: in vitro; conditions: dog, microsomes, NADPH-Dependent T1/2
MEASURED QUANTITY: half-life at 1 μM (min)
Entry rule: numbers only, all in min.

Q) Tell me half-life at 1 μM reported for `CN1[C@@H]2CC[C@H]1C[C@@H](OC(=O)c1c[nH]c3cc(F)ccc13)C2`
A) 50.6

Q) Query half-life at 1 μM for CN1[C@@H]2CC[C@H]1C[C@@H](OC(=O)c1c[nH]c3ccccc13)C2 [Compound F03, tropisetron, reference compound]
A) 53.1

###

biological target: CYP2C19 (Homo sapiens)
Sequence (P33261 whole entry): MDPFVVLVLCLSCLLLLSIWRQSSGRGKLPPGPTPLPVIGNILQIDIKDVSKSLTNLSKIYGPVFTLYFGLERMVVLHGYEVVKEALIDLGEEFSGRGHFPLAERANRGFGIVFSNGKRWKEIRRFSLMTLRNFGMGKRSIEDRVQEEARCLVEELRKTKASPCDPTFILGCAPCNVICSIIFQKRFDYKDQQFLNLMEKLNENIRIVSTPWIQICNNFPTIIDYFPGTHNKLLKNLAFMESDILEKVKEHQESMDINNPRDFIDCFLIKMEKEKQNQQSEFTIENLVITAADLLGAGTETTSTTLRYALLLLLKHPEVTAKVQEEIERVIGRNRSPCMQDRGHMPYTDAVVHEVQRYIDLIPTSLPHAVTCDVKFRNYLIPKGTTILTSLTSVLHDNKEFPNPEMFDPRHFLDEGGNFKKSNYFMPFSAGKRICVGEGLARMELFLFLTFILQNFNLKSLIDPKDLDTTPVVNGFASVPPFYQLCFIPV
pIC50: −log10 of the molar value.
MEASURED QUANTITY: pIC50

Q) Look up and report measured pIC50 (CYP2C19 (Homo sapiens)) for the following compound: CN1[C@@H]2CC[C@H]1C[C@@H](OC(=O)c1c[nH]c3cc(F)ccc13)C2 [Compound C41]
A) < 4.52

###

experiment: in vivo; details: rat, iv, Cmax plasma
MEASURED QUANTITY: Cmax (ng/mL)
State just the number; it will be interpreted in ng/mL.

Q) Given CN1[C@@H]2CC[C@H]1C[C@@H](OC(=O)c1c[nH]c3cc(F)ccc13)C2 [Compound C41] , respond with its Cmax.
A) 564

###

experiment: in vivo; settings: rat, iv, 2.5 mg/kg, MRT
MEASURED QUANTITY: MRT
Answer format reminder: number followed by unit.

Q) Supply MRT value. Item: `CN1[C@@H]2CC[C@H]1C[C@@H](OC(=O)c1c[nH]c3cc(F)ccc13)C2`
A) 6.63 h

###

Target: UniProtKB P05177
Sequence (P05177 1-516): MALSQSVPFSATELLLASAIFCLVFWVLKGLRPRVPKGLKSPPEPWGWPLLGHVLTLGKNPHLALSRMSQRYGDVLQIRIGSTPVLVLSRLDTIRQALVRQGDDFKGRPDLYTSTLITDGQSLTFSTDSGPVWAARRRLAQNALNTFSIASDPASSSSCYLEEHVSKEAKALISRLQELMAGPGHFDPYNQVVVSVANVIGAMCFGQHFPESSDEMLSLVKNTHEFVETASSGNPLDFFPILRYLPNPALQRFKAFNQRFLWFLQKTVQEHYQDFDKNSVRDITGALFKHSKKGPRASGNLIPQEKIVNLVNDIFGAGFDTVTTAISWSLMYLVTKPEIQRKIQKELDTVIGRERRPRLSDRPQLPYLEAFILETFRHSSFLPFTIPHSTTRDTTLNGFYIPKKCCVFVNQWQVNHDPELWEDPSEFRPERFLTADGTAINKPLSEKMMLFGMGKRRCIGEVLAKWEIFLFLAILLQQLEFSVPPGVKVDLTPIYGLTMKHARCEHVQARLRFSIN
Assay: CYP inhibition screen CYP1A2
Assay type: in vitro ADME
Settings: human; 10 μM; read-out: CYP1A2 inhibition
MEASURED QUANTITY: inhibition at 10 µM (%)
All answers are understood in %, so give the number only.

Q) For CN1[C@@H]2CC[C@H]1C[C@@H](OC(=O)c1c[nH]c3ccccc13)C2 [Compound F03, tropisetron, reference compound] , write its inhibition at 10 µM.
A) 1

###

Test: in vivo
Settings: rat, po, T1/2 elimination
Method: Top panel: Levels after oral delivery at 10 mk at 1, 8, and 24 hours; levels after oral delivery at 40 mk at 24 hours only. Bottom panel: IV delivery at 2.5 mk. Note brain levels in ng/g, plasma levels in ng/ml. FIG. 13 illustrates C41 pharmacokinetic parameters in rat. C41 pharmacokinetics were determined in a rat (see, FIG. 12, Table 9). […] Brain tissue was collected at 1, 8, and 24 hours. […] Oral availability was determined to be about 100% (see, e.g. FIG. 13).
MEASURED QUANTITY: half-life (h)
Field format: number, assumed h, no unit text.

Q) Give the reported value of half-life for this record: CN1[C@@H]2CC[C@H]1C[C@@H](OC(=O)c1c[nH]c3cc(F)ccc13)C2 [Compound C41]
A) 2.41
